Experiment: inhibitors of intracellular T. cruzi replication, confirmation, NIH3T3 host cells, beta-gal luminescence (AID 2044);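 further: intracellular parasites grown in NIH/3T3 mouse fibroblasts as host cells; luminescent beta-galactosidase reporter signal from transgenic T. cruzi replicating inside host cells; inhibitors lower the luminescence signal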
Type: functional, cell-based
The source made the active and inactive calls.
Here, each record is paired with measured EC50 data.
Property: EC50

>  <Molecule>
CCCC(=O)NC(c1ccc(N(C)C)cc1)c1ccc2cccnc2c1O (configuration not stated)

>  <Property>
EC50

>  <Observed value>
480 nM (active)

$$$$
>  <Molecule>
CC(C)(C)c1ccc(C(=O)NNc2cc(N3CCCCC3)nc(N3CCCCC3)n2)cc1

>  <Property>
EC50

>  <Observed value>
1700 nM (active)

$$$$
>  <Molecule>
O=C(COC(=O)c1c2c(nc3ccccc13)/C(=C\c1cccs1)CCC2)Nc1ccccc1

>  <Property>
EC50

>  <Observed value>
1900 nM (active)

$$$$
>  <Molecule>
Cc1ccc(O)c(C(=O)c2cc(C(=O)NCCc3ccccc3)c(=O)n(CCc3ccccc3)c2)c1

>  <Property>
EC50

>  <Observed value>
2020 nM (active)

$$$$
>  <Molecule>
CCN(CC)S(=O)(=O)c1ccc2oc(C(=O)NC3CCCc4ccccc43)c(C)c2c1 (configuration not stated)

>  <Property>
EC50

>  <Observed value>
2100 nM (active)

$$$$
>  <Molecule>
CCc1cccc(Nc2c([N+](=O)[O-])nn(-c3ccc4c(c3)OCCO4)[n+]2[O-])c1

>  <Property>
EC50

>  <Observed value>
272 nM (active)

$$$$
>  <Molecule>
N=c1n(CCN2CCCCC2)c2ccccc2n1CC(O)c1ccc(Cl)c(Cl)c1 (configuration not stated)

>  <Property>
EC50

>  <Observed value>
2080 nM (active)

$$$$

* * *

Experimental system: Glucose-6-phosphate 1-dehydrogenase (Homo sapiens)
Sequence (P11413 whole entry): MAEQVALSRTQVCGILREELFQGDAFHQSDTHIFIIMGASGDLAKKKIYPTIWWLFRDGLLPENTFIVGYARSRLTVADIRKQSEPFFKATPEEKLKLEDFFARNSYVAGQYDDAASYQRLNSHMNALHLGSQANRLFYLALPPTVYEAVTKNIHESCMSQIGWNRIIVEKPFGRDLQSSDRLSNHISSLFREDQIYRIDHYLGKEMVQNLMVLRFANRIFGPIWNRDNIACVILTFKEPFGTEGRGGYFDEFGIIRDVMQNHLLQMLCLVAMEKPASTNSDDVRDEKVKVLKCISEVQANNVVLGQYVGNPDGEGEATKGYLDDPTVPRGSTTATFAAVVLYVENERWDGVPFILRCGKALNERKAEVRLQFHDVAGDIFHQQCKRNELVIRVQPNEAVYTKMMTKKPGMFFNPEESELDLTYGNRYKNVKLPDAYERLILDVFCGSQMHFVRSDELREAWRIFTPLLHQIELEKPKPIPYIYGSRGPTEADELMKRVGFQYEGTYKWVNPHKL
Experiment: human G6PD enzyme inhibitors, dose response, selectivity assay for P. falciparum G6PD inhibitor project, biochemical, fluorescence (AID 504792)
Format: functional
Active and inactive are the calls of the source.
Outcomes: active, inactive

>  <Compound>
CCC(C)c1ccccc1OCCn1ccnc1 (centres undefined)

>  <Class name>
inactive

$$$$
>  <Compound>
O=c1c2cc(F)ccc2sn1-c1ccccc1Cl

>  <Class name>
active

$$$$
>  <Compound>
Cc1ccnc(-n2sc3ccccc3c2=O)n1

>  <Class name>
inactive

$$$$
>  <Compound>
CC(=O)Nc1ccc(S(=O)(=O)[N-]C2=C(n3cc[n+](-c4ccccn4)c3)C(=O)c3ccccc3C2=O)cc1

>  <Class name>
inactive

$$$$

* * *

Experimental system: Cytochrome P450 3A4 (Homo sapiens, UniProt P08684);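 further: CYP3A4 tested as one member of a cytochrome P450 panel screen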
Sequence (P08684 whole entry): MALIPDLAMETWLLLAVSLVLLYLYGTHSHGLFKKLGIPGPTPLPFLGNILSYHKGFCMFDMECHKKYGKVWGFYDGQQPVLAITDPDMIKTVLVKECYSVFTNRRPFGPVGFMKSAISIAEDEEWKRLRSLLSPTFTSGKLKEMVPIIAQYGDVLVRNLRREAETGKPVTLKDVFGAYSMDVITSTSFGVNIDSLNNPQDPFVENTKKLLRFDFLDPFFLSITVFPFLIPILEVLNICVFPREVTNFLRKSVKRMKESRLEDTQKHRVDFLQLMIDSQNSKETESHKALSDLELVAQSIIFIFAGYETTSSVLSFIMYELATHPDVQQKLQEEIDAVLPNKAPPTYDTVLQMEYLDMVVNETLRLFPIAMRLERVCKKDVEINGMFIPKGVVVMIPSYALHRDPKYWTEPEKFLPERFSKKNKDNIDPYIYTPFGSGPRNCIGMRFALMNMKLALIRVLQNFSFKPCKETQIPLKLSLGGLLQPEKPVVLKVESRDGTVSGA
Property: AC50

>  <Compound>
C/C(=N\NC(=O)c1ccc(Br)cc1)c1ccccc1

>  <Observed value>
15.8 µM (inconclusive)

$$$$
>  <Compound>
c1ccc2c(c1)ncn2-c1ncnc2sc3c(c12)CCCC3

>  <Observed value>
14.1 µM (inconclusive)

$$$$
>  <Compound>
Cc1ccc(/C=N/n2cnnc2)s1

>  <Observed value>
15.8 µM (inconclusive)

$$$$
>  <Compound>
CS(=O)(=O)N1CCN(c2ccc([N+](=O)[O-])c(NCc3ccccc3)c2)CC1

>  <Observed value>
31.6 µM (inconclusive)

$$$$
>  <Compound>
COCCNc1nc(-c2ccccc2OC)nc2ccccc12

>  <Observed value>
20 µM (inconclusive)

$$$$
>  <Compound>
COc1c2ccoc2nc2c(OC)c(OC[C@H](O)C(C)(C)O)ccc12

>  <Observed value>
15.8 µM (inconclusive)

$$$$
>  <Compound>
C/C(CC(=O)NC1CCCC1)=N\NC(=O)Cc1cccs1

>  <Observed value>
12.6 µM (inconclusive)

$$$$
>  <Compound>
Cc1[nH]nc(-c2ccc(OCc3cnn(-c4ccccc4)c3)cc2O)c1Oc1ccccc1F

>  <Observed value>
8.91 µM (inconclusive)

$$$$
>  <Compound>
COCCNc1nc(-c2ccc(C(=O)N(C)C)cc2)nc2ccccc12

>  <Observed value>
15.8 µM (inconclusive)

$$$$
>  <Compound>
CN(CCO)c1cc(Sc2nc3ccccc3s2)c2nonc2c1[N+](=O)[O-]

>  <Observed value>
22.4 µM (inconclusive)

$$$$
>  <Compound>
COCCN(CCOC)S(=O)(=O)c1ccc(C(=O)Nc2nc(C)c(C(C)=O)s2)cc1

>  <Observed value>
3.16 µM (inconclusive)

$$$$
>  <Compound>
COC(=O)C(O)(c1c(C)[nH]c2ccccc12)C(F)(F)F (configuration not stated)

>  <Observed value>
22.4 µM (inconclusive)

$$$$

* * *

AC50, UniProtKB P10635: measured values
Sequence (P10635 whole entry): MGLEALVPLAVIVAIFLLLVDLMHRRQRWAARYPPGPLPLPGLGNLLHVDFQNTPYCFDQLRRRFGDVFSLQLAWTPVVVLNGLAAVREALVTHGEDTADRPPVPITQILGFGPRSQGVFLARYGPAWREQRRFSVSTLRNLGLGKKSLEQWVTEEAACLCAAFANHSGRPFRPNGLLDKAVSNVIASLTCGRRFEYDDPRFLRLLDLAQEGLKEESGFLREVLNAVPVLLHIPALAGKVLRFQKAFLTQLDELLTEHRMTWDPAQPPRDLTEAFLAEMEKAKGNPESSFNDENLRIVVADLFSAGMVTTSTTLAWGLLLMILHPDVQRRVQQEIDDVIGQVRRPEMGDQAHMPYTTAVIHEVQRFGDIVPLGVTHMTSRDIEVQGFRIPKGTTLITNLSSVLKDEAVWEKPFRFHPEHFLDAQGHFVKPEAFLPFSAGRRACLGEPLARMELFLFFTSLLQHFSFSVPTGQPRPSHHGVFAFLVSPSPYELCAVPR

>  <Compound>
CSc1c(-c2ccccc2)nc2ccccc2c1C(=O)O

>  <AC50>
3.16 µM (inconclusive)

$$$$
>  <Compound>
FC(F)(F)c1ccccc1-c1cc(NCc2cccnc2)ncn1

>  <AC50>
25.1 µM (inconclusive)

$$$$
>  <Compound>
COc1cccc(C2=CC(c3ccccc3)n3nnnc3N2)c1 (centres undefined)

>  <AC50>
31.6 µM (inconclusive)

$$$$
>  <Compound>
CN(CCO)c1cc(Sc2nc3ccccc3s2)c2nonc2c1[N+](=O)[O-]

>  <AC50>
22.4 µM (inconclusive)

$$$$
>  <Compound>
Cc1ccccc1OCCNC(=O)c1ccccc1Sc1ccccc1C#N

>  <AC50>
25.1 µM (inconclusive)

$$$$
>  <Compound>
c1ccc2c(c1)ncn2-c1ncnc2sc3c(c12)CCCC3

>  <AC50>
0.00501 µM (inconclusive)

$$$$
>  <Compound>
COc1ccc(C(=O)N2CCC3(CCCN(Cc4ccccc4OC)C3)CC2)cc1

>  <AC50>
12.6 µM (inconclusive)

$$$$
>  <Compound>
CCCCc1ccc2[nH]c(NC(=O)OC)nc2c1 [PARBENDAZOLE]

>  <AC50>
1.58 µM (inconclusive)

$$$$
>  <Compound>
Cc1nnc2nc(SCC(=O)NCC3CCCO3)n(-c3ccc(Br)cc3)c(N)c1-2 (centres undefined)

>  <AC50>
10 µM (inconclusive)

$$$$
>  <Compound>
Cc1cc(Cl)ccc1OC(C)C(=O)Nc1ccc(S(=O)(=O)Nc2cnc3ccccc3n2)cc1 (centres undefined)

>  <AC50>
28.2 µM (inconclusive)

$$$$
>  <Compound>
CCCCCC1=C2CNC(CCC)(C(=O)OC)C=C2C(C)C1=O (centres undefined)

>  <AC50>
12.6 µM (inconclusive)

$$$$
>  <Compound>
COCCNc1nc(-c2ccccc2OC)nc2ccccc12

>  <AC50>
25.1 µM (inconclusive)

$$$$
>  <Compound>
NC1=C(c2nc(-c3ccc(F)cc3)cs2)C(=O)CN1CCCN1CCOCC1

>  <AC50>
28.2 µM (inconclusive)

$$$$
>  <Compound>
NCCCc1ccc2oc3ccccc3c2c1

>  <AC50>
2.51 µM (inconclusive)

$$$$
>  <Compound>
CC(C)(CC(=O)N1CCN(c2ccc(Cl)cc2)CC1)CC1=NS(=O)(=O)c2ccccc2N1

>  <AC50>
3.16 µM (inconclusive)

$$$$
>  <Compound>
O=C(NC1CCCC1)C(c1ccc(F)cc1)N(Cc1ccc(F)cc1)C(=O)c1cc[nH]n1 (centres undefined)

>  <AC50>
25.1 µM (inconclusive)

$$$$
>  <Compound>
Cc1ccc(N2C(=O)C(Cl)=C(NCc3ccccc3)C2=O)c(C)c1

>  <AC50>
22.4 µM (inconclusive)

$$$$
>  <Compound>
O=C(CCCC(=O)OCC(=O)c1ccc(Cl)cc1Cl)Nc1cc(C(F)(F)F)ccc1Cl

>  <AC50>
12.6 µM (inconclusive)

$$$$
>  <Compound>
Cc1ccc(S(=O)(=O)c2cc(C#N)c(O)nc2N)cc1

>  <AC50>
39.8 µM (inconclusive)

$$$$

* * *

Experimental system: UniProt P08659
Sequence (P08659 whole entry): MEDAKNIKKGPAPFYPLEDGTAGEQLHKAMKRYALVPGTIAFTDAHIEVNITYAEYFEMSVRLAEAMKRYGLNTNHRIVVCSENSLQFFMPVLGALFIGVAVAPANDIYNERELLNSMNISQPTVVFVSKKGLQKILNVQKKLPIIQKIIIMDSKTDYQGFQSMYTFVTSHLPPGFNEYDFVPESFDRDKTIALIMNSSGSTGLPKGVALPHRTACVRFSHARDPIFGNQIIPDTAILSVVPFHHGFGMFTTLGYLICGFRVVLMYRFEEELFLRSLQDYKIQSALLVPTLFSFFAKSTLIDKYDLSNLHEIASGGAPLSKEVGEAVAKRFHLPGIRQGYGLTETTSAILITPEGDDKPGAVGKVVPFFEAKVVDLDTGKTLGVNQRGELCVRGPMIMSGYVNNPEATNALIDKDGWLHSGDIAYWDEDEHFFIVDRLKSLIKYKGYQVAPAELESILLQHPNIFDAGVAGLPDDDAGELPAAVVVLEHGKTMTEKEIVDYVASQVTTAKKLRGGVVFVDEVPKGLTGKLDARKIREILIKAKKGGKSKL
Experiment: firefly luciferase enzyme inhibitors, dose response, biochemical, luminescence (AID 1891)
The source made the active and inactive calls.
Here, each record is paired with measured EC50 data.

>  <Compound>
Cc1ccnc(N2C(=O)c3ccccc3C2O)c1 (stereo unspecified)

>  <EC50>
27.7 µM (active)

$$$$
>  <Compound>
O=c1oc(-c2ccc([N+](=O)[O-])cc2)nc2ccc(O)cc12

>  <EC50>
0.995 µM (active)

$$$$
>  <Compound>
C/N=c1\scc(-c2ccccc2F)n1/N=C/c1ccc(O)c(O)c1O

>  <EC50>
1.68 µM (active)

$$$$
>  <Compound>
NC(=O)c1ccccc1N/C=C/C(=O)c1ccc(Cl)cc1Cl

>  <EC50>
1.1 µM (active)

$$$$
>  <Compound>
O=C(CCCN1C(=O)/C(=C/c2ccccc2Cl)SC1=S)NNC(=O)c1ccccc1

>  <EC50>
> 112 µM (not active)

$$$$
>  <Compound>
Cc1onc(-c2ccccc2Cl)c1C(=O)Nc1ccc(Br)cc1

>  <EC50>
> 112 µM (not active)

$$$$

* * *

Experimental system: Caspase-3 (Homo sapiens, UniProt P42574);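 further: Dose-response selectivity test against caspase-3 for candidate inhibitors of sentrin-specific proteases (SENPs)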
Sequence (P42574 whole entry): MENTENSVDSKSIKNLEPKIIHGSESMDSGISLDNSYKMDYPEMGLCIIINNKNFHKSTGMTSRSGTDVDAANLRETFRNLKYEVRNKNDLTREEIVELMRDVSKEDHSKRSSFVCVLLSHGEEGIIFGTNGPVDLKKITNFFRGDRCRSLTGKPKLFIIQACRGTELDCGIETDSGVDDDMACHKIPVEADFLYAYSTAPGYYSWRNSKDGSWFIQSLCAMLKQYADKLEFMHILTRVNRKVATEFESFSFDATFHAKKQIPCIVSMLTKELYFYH
Assay type: functional
Calls of active or inactive are those of the source.
Property: IC50

>  <Structure>
COc1ccccc1N(/N=C1\Sc2ccccc2C1=O)C(C)=O

>  <Observed value>
27.8 µM (active)

$$$$
>  <Structure>
C/C(=N\NC(=O)c1ccc(Br)cc1)c1ccccc1

>  <Observed value>
4.06 µM (active)

$$$$
>  <Structure>
Oc1c(-c2cc(-c3ccco3)[nH]n2)ccc2ccccc12

>  <Observed value>
59.7 µM (active)

$$$$
>  <Structure>
CC(C)CSC1=NSC2=NC(=O)/C(=C\c3cccs3)C(=N)N12

>  <Observed value>
26.8 µM (active)

$$$$
>  <Structure>
CCc1cc[n+](C2=C([N-]S(=O)(=O)c3cccs3)C(=O)c3ccccc3C2=O)cc1

>  <Observed value>
12.5 µM (active)

$$$$
>  <Structure>
O=C(COc1ccc2ccccc2c1)Nc1ccccc1C(=O)O

>  <Observed value>
15.2 µM (active)

$$$$
>  <Structure>
O=C1C=C(Nc2ccc(F)cc2)c2ccccc2C1=O

>  <Observed value>
13.9 µM (active)

$$$$
